The origin of these recorded values is ChEMBL document CHEMBL1124916.

For each record, write down the corresponding OD.
- Species on record: Mus musculus
- measurement.notes: Optimal Dose (OD) which cause maximum increase in the life span, after singular injection at log (1/C).
- Assay type: functional
Answers are plain numbers.

1) O=C1C=C(N2CC2)C(=O)C(N2CC2)=C1N1CC1 [TRIAZIQUONE] ... 5.74

// for each molecule below, give its OD
1. CCOC(COC(N)=O)C1=C(N2CC2)C(=O)C(C)=C(N2CC2)C1=O (stereo unspecified)
2. CC(C)C1=C(N2CC2)C(=O)C(C(C)C)=C(N2CC2)C1=O
3. CC1=C(N2CC2)C(=O)C(CCO)=C(N2CC2)C1=O
4. COC1=C(N2CC2)C(=O)C(OC)=C(N2CC2)C1=O

1: 4.62; 2: 4.14; 3: 5.25; 4: 4.32

---

- Species on record: Mus musculus
- measurement.notes: Optimal Dose (OD) which cause maximum increase in the life span, after singular injection at log (1/C).
- Format: functional
# cutoff 5 applies to OD; >= gives TRUE, < gives FALSE

Exam item: decide whether the reported OD for CC1=C(N2CC2)C(=O)C(CC(C)OC(N)=O)=C(N2CC2)C1=O (stereo not drawn) is at least 5. TRUE

Exam item: decide whether the reported OD for CC1=C(N2CC2)C(=O)C(C)=C(N2CC2)C1=O is at least 5. FALSE

Exam item: decide whether the reported OD for CC1=C(N2CC2)C(=O)C(COc2ccccc2)=C(N2CC2)C1=O is at least 5. FALSE

Exam item: decide whether the reported OD for CCC1=C(N2CC2)C(=O)C(CC)=C(N2CC2)C1=O is at least 5. FALSE

Exam item: decide whether the reported OD for CC1=C(N2CC2)C(=O)C(CCCc2ccccc2)=C(N2CC2)C1=O is at least 5. FALSE

Exam item: decide whether the reported OD for CC(=O)C1=C(N2CC2)C(=O)C(C)=C(N2CC2)C1=O is at least 5. FALSE

Exam item: decide whether the reported OD for CCC(COC(N)=O)C1=C(N2CC2)C(=O)C(C)=C(N2CC2)C1=O (stereo not drawn) is at least 5. TRUE

---

- Organism: Mus musculus
- measurement.notes: Optimal Dose (OD) which cause maximum increase in the life span, after chronic injection at log (1/C).
- Assay type: functional
# cutoff 5 applies to OD; >= gives Y, < gives N

Worked set:
1) CCCC1=C(N2CC2)C(=O)C(CCOC(N)=O)=C(N2CC2)C1=O ... Y
2) COCCOC(COC(N)=O)C1=C(N2CC2)C(=O)C(C)=C(N2CC2)C1=O (stereo unspecified) ... Y
3) COCCC1=C(N2CC2)C(=O)C(CCOC)=C(N2CC2)C1=O ... Y
4) COC1=C(N2CC2)C(=O)C(OC)=C(N2CC2)C1=O ... Y
5) O=C1C(c2ccccc2)=C(N2CC2)C(=O)C(c2ccccc2)=C1N1CC1 ... N

Exam item: decide whether the reported OD for COC(COC(N)=O)C1=C(N2CC2)C(=O)C(C)=C(N2CC2)C1=O (stereo unspecified) is at least 5. Y

Exam item: decide whether the reported OD for CN(C)C(=O)OCCC1=C(N2CC2)C(=O)C(CCOC(=O)N(C)C)=C(N2CC2)C1=O is at least 5. N

Exam item: decide whether the reported OD for CC(C)C1=C(N2CC2)C(=O)C(C(C)C)=C(N2CC2)C1=O is at least 5. N

Exam item: decide whether the reported OD for CCC1=C(N2CC2)C(=O)C(C)=C(N2CC2)C1=O is at least 5. Y

Exam item: decide whether the reported OD for CCCCCC1=C(N2CC2)C(=O)C(CCCCC)=C(N2CC2)C1=O is at least 5. N

Exam item: decide whether the reported OD for CC1=C(N2CC2)C(=O)C(CCCOC(N)=O)=C(N2CC2)C1=O is at least 5. Y

Exam item: decide whether the reported OD for CCC1=C(N2CC2)C(=O)C(C(COC(N)=O)OC)=C(N2CC2)C1=O (stereo unspecified) is at least 5. Y

Exam item: decide whether the reported OD for CC1=C(N2CC2)C(=O)C(Cc2ccccc2)=C(N2CC2)C1=O is at least 5. N

Exam item: decide whether the reported OD for CCC1=C(N2CC2)C(=O)C(CCOC(N)=O)=C(N2CC2)C1=O is at least 5. Y

Exam item: decide whether the reported OD for CCOC(COC(N)=O)C1=C(N2CC2)C(=O)C(C)=C(N2CC2)C1=O (stereo unspecified) is at least 5. Y

Exam item: decide whether the reported OD for CC1=C(N2CC2)C(=O)C(CC(C)OC(N)=O)=C(N2CC2)C1=O (stereo unspecified) is at least 5. Y

---

- Species: Mus musculus
- measurement.notes: Optimal Dose (OD) which cause maximum increase in the life span, after chronic injection at log (1/C).
- Type: functional
For each record, write down the corresponding OD.
One number for each entry.

Consider the following illustrative entries.
1) CCC(COC(N)=O)C1=C(N2CC2)C(=O)C(C)=C(N2CC2)C1=O (stereo not drawn) ... 5.66
2) CCC(OC)C1=C(N2CC2)C(=O)C(C)=C(N2CC2)C1=O (stereo not drawn) ... 5.33

Next molecule, please.
Tell me its OD given CCCC1=C(N2CC2)C(=O)C(CCC)=C(N2CC2)C1=O as the entry. 4.44

---

- measurement.notes: Evaluation for the Anti-pentylenetetrazole effect.
- Format: functional
- Set-up: unit not given here
reported.property: Anti-pent effect
Numbers only.

1. O=C1CN=C(c2ccccc2F)c2cc(Cl)ccc2N1 ... 6.46
2. O=C1CN=C(c2ccccc2)c2cc(Cl)ccc2N1Cc1ccccc1 ... 4.64
3. CNC(=O)CN1C(=O)CN=C(c2ccccc2)c2cc(C(F)(F)F)ccc21 ... 5.06

// for each compound below, give its Anti-pent effect
1. CNC(=O)CN1C(=O)CN=C(c2ccccc2)c2cc([N+](=O)[O-])ccc21
2. O=C1CN=C(c2ccccc2)c2cc(Cl)ccc2N1CCCO
3. O=C1CN=C(c2ccccc2)c2cc(Cl)ccc2N1CC1CC1
4. CN1C(=O)CN=C(c2ccccc2F)c2cc([N+](=O)[O-])ccc21
5. CN(C)c1ccc2c(c1)C(c1ccccc1)=NCC(=O)N2C
6. CC(=O)CN1C(=O)CN=C(c2ccccc2)c2cc(Cl)ccc21

1: 5.29; 2: 4.34; 3: 4.9; 4: 6.5; 5: 4.69; 6: 5.28

// for each compound below, give its Anti-pent effect
1. C=CCN1C(=O)CN=C(c2ccccc2)c2cc(Cl)ccc21
2. NC(=O)CN1C(=O)CN=C(c2ccccc2)c2cc(Cl)ccc21

5.35
5.07

---

- Species: Mus musculus
- measurement.notes: Optimal Dose (OD) which cause maximum increase in the life span, after singular injection at log (1/C).
- Type: functional
Entries whose OD is below 5 take MET; entries at or above 5 take NOT MET.

Worked set:
1. COC(CO)C1=C(N2CC2)C(=O)C(C)=C(N2CC2)C1=O (stereo unspecified) ... NOT MET
2. CCCC1=C(N2CC2)C(=O)C(CCOC(N)=O)=C(N2CC2)C1=O ... MET
3. CC1=C(N2CC2)C(=O)C(Cc2ccccc2)=C(N2CC2)C1=O ... MET

Given the entry COCCC1=C(N2CC2)C(=O)C(CCOC)=C(N2CC2)C1=O , would its reported OD be below 5? MET

Given the entry CCC1=C(N2CC2)C(=O)C(C)=C(N2CC2)C1=O , would its reported OD be below 5? MET

Given the entry CCOC(COC(N)=O)C1=C(N2CC2)C(=O)C(CC)=C(N2CC2)C1=O (stereo unspecified) , would its reported OD be below 5? MET

---

For each record, write down the corresponding OD.
- Organism: Mus musculus
- measurement.notes: Optimal Dose (OD) which cause maximum increase in the life span, after singular injection at log (1/C).
- Format: functional
One number for each entry.

Consider the following illustrative entries.
1) COCCOC(COC(N)=O)C1=C(N2CC2)C(=O)C(C)=C(N2CC2)C1=O (stereo unspecified) ... 4.96
2) CC1=C(N2CC2)C(=O)C(C(C)C)=C(N2CC2)C1=O ... 4.69
3) O=C1C(CCO)=C(N2CC2)C(=O)C(CCO)=C1N1CC1 ... 5.6

// for each molecule below, give its OD
1. CCC1=C(N2CC2)C(=O)C(C(COC(N)=O)OC)=C(N2CC2)C1=O (stereo unspecified)
2. CC1=C(N2CC2)C(=O)C(N2CC2)=C(N2CC2)C1=O

[4.92, 5.69]

Tell me its OD given CC1=C(N2CC2)C(=O)C(CCOC(=O)N(C)C)=C(N2CC2)C1=O as the entry. 4.84

---

- measurement.notes: Evaluation for the Anti-pentylenetetrazole effect.
- Type: functional
- Set-up: unit not given here
reported.property: Anti-pent effect
Give bare numbers.

Consider the following illustrative entries.
1) O=C1CN=C(c2ccccc2)c2cc([N+](=O)[O-])ccc2N1 ... 5.6
2) CSc1ccc2c(c1)C(c1ccccc1)=NCC(=O)N2C ... 3.6
3) CN(C)CCN1C(=O)CN=C(c2ccccc2)c2cc(Cl)ccc21 ... 4.73
4) CCN(CC)CCN1C(=O)CN=C(c2ccccc2F)c2cc(Cl)ccc21 ... 5.38
5) O=C1CN=C(c2ccccc2[N+](=O)[O-])c2cc([N+](=O)[O-])ccc2N1 ... 5.97

// for each compound below, give its Anti-pent effect
1. NN1C(=O)CN=C(c2ccccc2)c2cc([N+](=O)[O-])ccc21
2. CN1C(=O)CN=C(c2ccccc2Cl)c2cc([N+](=O)[O-])ccc21
3. C=CCN1C(=O)CN=C(c2ccccc2)c2cc(C(F)(F)F)ccc21

5.77
6.92
5.03
